Source of measurements: patent US20210300974

System: TMR-RRRK-NH2 (synthetic)
Sequence: RRRK
Assay: FP
Details: 2 mM NaCl, pH 7.4
REPORTED_METRIC: Kd (nM)
Numbers only, in nM.

[in] Requested read-out Kd, target or system TMR-RRRK-NH2 (synthetic), entry GACGACTAGGACGACGACGAGGATGACGAC (double strand) [30-mer dsDNA]
[out] 28

---

Tested on: TMR-beta3(KRRR)-NH2 (synthetic)
Sequence: KRRR
Assay: FP
Settings: 2 mM NaCl, pH 7.4
REPORTED_METRIC: Kd (nM)
Answers are plain numbers, in nM.

[in] Requested read-out Kd, target or system TMR-beta3(KRRR)-NH2 (synthetic), entry GACGACTAGGACGACGACGAGGATGACGAC (double strand) [30-mer dsDNA]
[out] 41

---

Tested on: TMR-beta3(RRRK)-NH2 (synthetic)
Sequence: RRRK
Test: FP
Settings: 2 mM NaCl, pH 7.4
REPORTED_METRIC: Kd (nM)
One number for each entry, in nM.

[in] Returns the measured Kd for the input sequence. Input: GACGACTAGGACGACGACGAGGATGACGAC (double strand) [30-mer dsDNA]
[out] 49

---

Test system: TMR-(CH2)5-KRRR-NH2 (synthetic)
Sequence: KRRR
Test: FP
Conditions: 2 mM NaCl, pH 7.4
REPORTED_METRIC: pKd
One number for each entry, as −log10 of the molar value.

[in] Returns the measured pKd for the input sequence. Input: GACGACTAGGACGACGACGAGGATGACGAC (double strand) [30-mer dsDNA]
[out] 7.34
